# Target entity: human CYP 1A2 (Homo sapiens)
# Sequence (P05177 whole entry): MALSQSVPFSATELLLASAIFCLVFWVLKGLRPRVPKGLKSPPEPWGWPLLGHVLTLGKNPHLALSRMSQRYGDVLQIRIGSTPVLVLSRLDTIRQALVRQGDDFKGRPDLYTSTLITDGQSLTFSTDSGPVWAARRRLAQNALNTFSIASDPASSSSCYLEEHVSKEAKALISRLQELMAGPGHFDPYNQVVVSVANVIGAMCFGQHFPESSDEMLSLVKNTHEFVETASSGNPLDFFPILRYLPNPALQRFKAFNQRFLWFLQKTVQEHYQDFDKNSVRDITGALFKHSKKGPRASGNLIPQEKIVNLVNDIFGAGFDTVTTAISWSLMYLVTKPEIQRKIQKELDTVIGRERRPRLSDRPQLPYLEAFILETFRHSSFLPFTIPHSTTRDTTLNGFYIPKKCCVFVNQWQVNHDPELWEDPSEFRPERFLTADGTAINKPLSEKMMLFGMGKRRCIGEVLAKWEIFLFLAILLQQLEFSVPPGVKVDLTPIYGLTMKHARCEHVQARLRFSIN
# Procedure text: in-house CYP 1A2 inhibition assay with 7-methoxyresorufin as substrate (resorufin fluorescence)
# Measurement parameters: from in-house IC50 via Cheng-Prusoff and RTln(Ki)
Below, each entry is listed alongside its reported ΔG bind (inhouse).
Measured quantity: ΔG bind (inhouse) (kJ/mol)

[
  {
    "Molecule": "Cc1ccc(CCN)cc1 [Compound 12, p-tolylethylamine]",
    "Measured quantity": "ΔG bind (inhouse)",
    "Measured result": -24.3
  },
  {
    "Molecule": "Cc1cccc(Nc2ccccc2C(=O)O)c1C [Compound 1, Mefenamic Acid]",
    "Measured quantity": "ΔG bind (inhouse)",
    "Measured result": -28.9
  },
  {
    "Molecule": "Cc1c2ccncc2c(C)c2c1[nH]c1ccccc12 [Compound 5, Ellipticine]",
    "Measured quantity": "ΔG bind (inhouse)",
    "Measured result": -48.7
  },
  {
    "Molecule": "COc1ccccc1OCCNCC(O)COc1cccc2[nH]c3ccccc3c12 (stereo not drawn) [Compound 3, Carvedilol]",
    "Measured quantity": "ΔG bind (inhouse)",
    "Measured result": -32.2
  },
  {
    "Molecule": "Oc1cccc2ccccc12 [Compound 9, 1-naphthol]",
    "Measured quantity": "ΔG bind (inhouse)",
    "Measured result": -34.5
  },
  {
    "Molecule": "COc1ccc(C=O)cc1 [Compound 11, p-methoxybenzaldehyde]",
    "Measured quantity": "ΔG bind (inhouse)",
    "Measured result": -21.2
  }
]

// data source = paper PMC4638363
